target: JAK3: Recombinant human kinase domain (Homo sapiens, UniProt P52333); construct: JAK3: Recombinant human kinase domain from Millipore (Cat #14-629) or prepared; assay: Determination of IC50 of Janus Kinase (JAK) inhibition, radioactive end-point 33P-ATP assay, JAK3; details: ATP 1.5 uM, peptide 50 uM, 20 minutes, read-out: JAK3-INHIB-DR/v1~NO ADDITIVE~Enzyme_Conc = 100
Sequence (P52333 822-1111 limits assumed): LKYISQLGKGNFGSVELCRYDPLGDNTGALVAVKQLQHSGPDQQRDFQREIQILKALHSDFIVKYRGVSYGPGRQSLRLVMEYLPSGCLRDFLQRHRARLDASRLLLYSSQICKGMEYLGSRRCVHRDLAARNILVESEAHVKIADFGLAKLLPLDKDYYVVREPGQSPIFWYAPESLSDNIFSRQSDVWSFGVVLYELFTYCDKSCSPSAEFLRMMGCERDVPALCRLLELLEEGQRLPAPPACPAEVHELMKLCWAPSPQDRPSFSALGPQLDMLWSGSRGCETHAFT
QUANTITY NAME: IC50 (nM)

As a guide, the following entries are already answered.
CCC(C)(C)NC(=O)c1c[nH]c2ncc(-c3nn(C)c4cc(F)ccc34)nc12	22.9
COC[C@H](C)NC(=O)c1c[nH]c2ncc(-n3cnc4cc(Cl)ccc43)nc12	189
CCCC(C)NC(=O)c1c[nH]c2ncc(-c3nn(C)c4cc(F)ccc34)nc12 (centres unmarked)	4.96
C[C@@H](NC(=O)c1c[nH]c2ncc(-c3nn(C)c4cc(F)ccc34)nc12)C(F)(F)Cc1ccccc1	16.8
CC(NC(=O)c1c[nH]c2ncc(-c3nn(C)c4cc(Cl)ccc34)nc12)C(F)(F)F (centres unmarked)	19.4
C[C@@H](NC(=O)c1c[nH]c2ncc(-c3nn(Cc4ccccn4)c4cc(Cl)ccc34)nc12)C(=O)N1CC(C#N)C1	1.29

P: C[C@@H](NC(=O)c1c[nH]c2ncc(-c3nn(C)c4cc(F)ccc34)nc12)c1ncco1
Q: COC[C@H](C)NC(=O)c1c[nH]c2ncc(-c3nc(Cl)n4cc(F)ccc34)nc12
stdin: Lower value of IC50 belongs to which: P or Q ? Your choice should be expressed through its label.
stdout: P

* * *

molecular target: recombinant human SYK360-635 (Homo sapiens, UniProt P43405); construct: made in house; experiment: Determination of IC50 of Spleen Tyrosine Kinase (SYK) inhibition, 33P ATP filtration assay; assay type: biochemical; settings: SYK aa 360-635 0.5 nM; ATP 20 μM, peptide 5 μM, 0.1% BSA; read-out: SYK_ENZYME_FILTRATION/v1, BSA
pIC50: −log10 of the molar value.
QUANTITY NAME: pIC50

C#CC1CN(C(=O)c2c[nH]c3ncc(-c4nn(C)c5cc(F)ccc45)nc23)C1	5.81
Cn1nc(-c2cnc3[nH]cc(C(=O)N[C@]4(C)CC[C@@H](N)CC4)c3n2)c2ccc(F)cc21	8.71
Cn1nc(-c2cnc3[nH]cc(C(=O)NC(C)(CO)CO)c3n2)c2ccc(F)cc21	8.09
Cc1ccc2c(-c3cnc4[nH]cc(C(=O)NC(C)(C)CO)c4n3)nn(CC(=O)N3CCOCC3)c2c1	8.01
CC(C)NC(=O)c1c[nH]c2ncc(-c3n[nH]c4cc(Cl)ccc34)nc12	8.14

I: CC(C)(C)NC(=O)c1c[nH]c2ncc(-c3nn(CC4CNC4)c4ccc(OC(F)F)cc34)nc12
II: COC[C@H](C)NC(=O)c1c[nH]c2ncc(-c3nn(C4COC4)c4cc(F)ccc34)nc12
III: Cn1nc(-c2cnc3[nH]cc(C(=O)NC(C)(C)C)c3n2)c2cc(C(F)(F)F)ccc21
stdin: Please rank these compounds by pIC50 in descending order. To answer, arrange all of the labels according to the requested order.
stdout: I, II, III

* * *

molecular target: recombinant human SYK360-635 (Homo sapiens); construct: made in house; experiment: Determination of IC50 of Spleen Tyrosine Kinase (SYK) inhibition, 33P ATP filtration assay; format: biochemical; details: SYK aa 360-635 0.5 nM; ATP 20 μM, peptide 5 μM, 0.1% BSA; read-out: SYK_ENZYME_FILTRATION/v1, BSA
pIC50: −log10 of the molar value.
QUANTITY NAME: pIC50

As a guide, the following entries are already answered.
Cc1ccc2c(-c3cnc4[nH]cc(C(=O)NC(C)(C)CO)c4n3)n[nH]c2c1	8.34
CC(CN1CCC(C#N)C1)NC(=O)c1c[nH]c2ncc(-c3nn(C)c4cc(Cl)ccc34)nc12 (stereo not shown)	7.08
C[C@@H](CC#N)NC(=O)c1c[nH]c2ncc(-c3nn(C)c4cc(Cl)ccc34)nc12	7.69
CC(O)C(C)NC(=O)c1c[nH]c2ncc(-c3nn(C)c4cc(Cl)ccc34)nc12 (stereo not shown)	7.87
C[C@@H](NC(=O)c1c[nH]c2ncc(-c3nn(C)c4cc(C#N)ccc34)nc12)C(=O)N1CC(C#N)C1	7.34

1: C[C@H](CN1CC(F)C1)NC(=O)c1c[nH]c2ncc(-c3nn(C)c4cc(Cl)ccc34)nc12
2: Cn1nc(-c2cnc3[nH]cc(C(=O)NC4(C)CCNC4)c3n2)c2ccc(F)cc21 (stereo not shown)
stdin: Lower value of pIC50 belongs to which: 1 or 2 ? Your choice should be expressed through its label.
stdout: 1

* * *

target: JAK3: Recombinant human kinase domain (Homo sapiens, UniProt P52333); construct: JAK3: Recombinant human kinase domain from Millipore (Cat #14-629) or prepared; test: Determination of IC50 of Janus Kinase (JAK) inhibition, radioactive end-point 33P-ATP assay, JAK3; settings: ATP 1.5 uM, peptide 50 uM, 20 minutes, read-out: JAK3-INHIB-DR/v1~NO ADDITIVE~Enzyme_Conc = 100
pIC50: −log10 of the molar value.
QUANTITY NAME: pIC50

Cn1nc(-c2cnc3[nH]cc(C(=O)N[C@H]4CC[C@@H](CC#N)C4)c3n2)c2ccc(F)cc21 (relative stereo) [Example I-57]	7.98
CC(C)NC(=O)c1c[nH]c2ncc(-c3nn(CCN4CCOCC4)c4cc(Cl)cc(F)c34)nc12 [Example I-129]	8.36

A: COc1ccc2c(-c3cnc4[nH]cc(C(=O)NC(C)(C)C)c4n3)nn(C)c2c1 [Example I-366]
B: C[C@@H](CO)NC(=O)c1c[nH]c2ncc(-c3nn(C)c4cc(Cl)ccc34)nc12 [Example I-164]
stdin: // which entry has the larger pIC50 value, A or B ? Your choice should be expressed through its label.
stdout: B

* * *

target: JAK3: Recombinant human kinase domain (Homo sapiens); construct: JAK3: Recombinant human kinase domain from Millipore (Cat #14-629) or prepared; experiment: Determination of IC50 of Janus Kinase (JAK) inhibition, radioactive end-point 33P-ATP assay, JAK3; settings: ATP 1.5 uM, peptide 50 uM, 20 minutes, read-out: JAK3-INHIB-DR/v1~NO ADDITIVE~Enzyme_Conc = 100
pIC50: −log10 of the molar value.
QUANTITY NAME: pIC50

a: CC(NC(=O)c1c[nH]c2ncc(-c3nn(C)c4cc(Cl)ccc34)nc12)C1CCCO1 (stereo not shown)
b: Cn1nc(-c2cnc3[nH]cc(C(=O)NC4(c5ccc(Br)cc5)CC4)c3n2)c2ccc(F)cc21
stdin: // which entry has the larger pIC50 value, a or b ? Your choice should be expressed through its label.
stdout: a

1: C[C@H](Cn1cccn1)NC(=O)c1c[nH]c2ncc(-c3nn(C)c4cc(F)ccc34)nc12
2: COC[C@@H](NC(=O)c1c[nH]c2ncc(-c3nn(C)c4cc(F)ccc34)nc12)[C@H](C)OC
stdin: // which entry has the larger pIC50 value, 1 or 2 ? Your choice should be expressed through its label.
stdout: 2

* * *

target: recombinant human SYK360-635 (Homo sapiens); construct: made in house; assay: Determination of IC50 of Spleen Tyrosine Kinase (SYK) inhibition, 33P ATP filtration assay; format: biochemical; details: SYK aa 360-635 0.5 nM; ATP 20 μM, peptide 5 μM, 0.1% BSA; read-out: SYK_ENZYME_FILTRATION/v1, BSA
Structures can show the parent of a compound that is named as a salt.
QUANTITY NAME: IC50 (µM)

As a guide, the following entries are already answered.
Cn1nc(-c2cnc3[nH]cc(C(=O)NCC4(O)CNC4)c3n2)c2ccc(F)cc21 [Example I-463, trifluoroacetate]	0.00542
Cn1ncc2c(-c3cnc4[nH]cc(C(=O)NC(C)(C)C)c4n3)cccc21 [Example I-451, hydrochloride]	0.0048
Cn1nc(-c2cnc3[nH]cc(C(=O)NC4CCC(N)C4)c3n2)c2ccc(Cl)cc21 (stereo not shown)	0.0064

I: Cn1nc(-c2cnc3[nH]cc(C(=O)N[C@]4(C)CC[C@H](N)CC4)c3n2)c2ccc(F)cc21
II: C[C@H](Cn1ccnc1)NC(=O)c1c[nH]c2ncc(-c3nn(C)c4cc(Cl)ccc34)nc12
stdin: Lower value of IC50 belongs to which: I or II ? Your choice should be expressed through its label.
stdout: II
(II: 0.482 µM, I: 0.787 µM)

A: CCc1ccc2c(-c3cnc4[nH]cc(C(=O)N[C@H](C)C(=O)N5CC(C#N)C5)c4n3)nn(C)c2c1
B: Cc1cc(Cn2nc(-c3cnc4[nH]cc(C(=O)NC(C)C)c4n3)c3ccc(Cl)cc32)no1
stdin: // which entry has the larger IC50 value, A or B ? Your choice should be expressed through its label.
stdout: A
(A: 0.158 µM, B: 0.0736 µM)
